The measured values listed here are drawn from patent US20180141988A1.

# target or system: T1, murine GPC3 (6938-GP; R&D systems), biotinylated (murine, UniProt Q8CFZ4 25-558, limits assumed, biotinylated using standard NHS chemistry)
# T1 construct: Bought protein; also called mouse GPC3
# T1 sequence (Q8CFZ4 25-558 limits assumed): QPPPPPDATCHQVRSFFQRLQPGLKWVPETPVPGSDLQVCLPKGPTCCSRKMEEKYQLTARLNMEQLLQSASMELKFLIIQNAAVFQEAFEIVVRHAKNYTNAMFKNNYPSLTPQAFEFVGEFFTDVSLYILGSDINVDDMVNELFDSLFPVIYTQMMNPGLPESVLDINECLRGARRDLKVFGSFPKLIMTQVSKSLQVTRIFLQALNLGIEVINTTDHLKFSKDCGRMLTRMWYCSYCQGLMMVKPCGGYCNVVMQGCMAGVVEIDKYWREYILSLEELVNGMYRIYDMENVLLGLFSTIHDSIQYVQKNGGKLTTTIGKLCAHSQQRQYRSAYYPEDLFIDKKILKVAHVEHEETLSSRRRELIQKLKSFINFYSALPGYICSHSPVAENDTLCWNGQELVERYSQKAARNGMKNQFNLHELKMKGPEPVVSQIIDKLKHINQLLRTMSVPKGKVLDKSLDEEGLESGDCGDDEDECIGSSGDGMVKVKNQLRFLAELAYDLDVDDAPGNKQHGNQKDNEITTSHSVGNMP
# protocol: SPR (Biacore T200), biotinylated GPC3 captured on chip, mutein in flow
measured quantity: kon (M⁻¹ s⁻¹)
The answer is to be given in M⁻¹ s⁻¹; state only the numeric part.

binder	kon, M⁻¹ s⁻¹
lipocalin mutein of SEQ ID NO: 5 (designed binder, hNGAL (Lcn2) mutein; also called optimized GPC3 specific lipocalin mutein) QDSTSDLIPAPPLSKVPLQQNFQDNQFQGKWYVVGVAGNALLREDKDPLKMRATIYELKEDKSYDVTVVSFWRKKCHYKIGTFVPGSQPGEFTLGDIKSGPGQTSNLVRVVSTNYNQHAMVFFKEVRQNREWFAITLYGRTKELTSELKENFIRFSKSLGLPENHIVFPVPIDQCIDGSAWSHPQFEK	1.3e+06
lipocalin mutein of SEQ ID NO: 8 (designed binder, hNGAL (Lcn2) mutein; also called optimized GPC3 specific lipocalin mutein) QDSTSDLIPAPPLSKVPLQQNFQDNQFQGKWYVVGRAGNVGLREDKDPPKMWATIYELKEDKSYDVTNVRFARKKCLYSIGTFVPGSQPGEFTLGQIKSEPGNTANLVRVVSTNYNQHAMVFFKEVYQNREIFFIILYGRTKELTSELKENFIRFSKSLGLPENHIVFPVPIDQCIDGSAWSHPQFEK	1.9e+06

Kindly consider the entry below.
Query block: Specify measured kon for lipocalin mutein of SEQ ID NO: 13 (designed binder, hNGAL (Lcn2) mutein; also called optimized GPC3 specific lipocalin mutein) QDSTSDLIPAPPLSKVPLQQNFQDNQFQGKWYVVGRAGNLGLREDKDPPKMWATIYELKEDKSYDVTNVRFARKKCMYSIGTFVPGSQPGEFTLGQIKSEPGSTANLVRVVSTNYNQHAMVFFKEVYQNREIFFITLYGRTKELTSELKENFIRFSKSLGLPENHIVFPVPIDQCIDGSAWSHPQFEK .
Result block: 2.7e+06
